- Target Entity: norepinephrine transporter (NET) (Rattus norvegicus)
- Protocol Summary: Norepinephrine reuptake ([^3H]norepinephrine uptake) inhibition in rat brain synaptosomes
- Condition Info: read-out: NET Uptake IC50; mean ± S.D., n = 3
Measured Endpoint: IC50 (nM)
The answer is to be given in nM; state only the numeric part.

[
  {
    "Molecule": "CS(=O)(=O)Nc1ccc(-c2nc(NCC(c3ccccc3)c3ccccc3)c3ccccc3n2)c(Cl)c1",
    "Target Entity": "norepinephrine transporter (NET) (Rattus norvegicus)",
    "Measured Endpoint": "IC50",
    "Unit Descriptor": "nM",
    "Numeric Value": 47
  },
  {
    "Molecule": "Cc1cc(NS(C)(=O)=O)ccc1-c1nc(NCC(c2ccccc2)c2ccncc2)c2ccccc2n1 (centres unmarked)",
    "Target Entity": "norepinephrine transporter (NET) (Rattus norvegicus)",
    "Measured Endpoint": "IC50",
    "Unit Descriptor": "nM",
    "Numeric Value": 31
  },
  {
    "Molecule": "Cc1cc2nccn2cc1-c1nc(NCC(c2ccccc2)c2ccncc2)c2ccccc2n1 (centres unmarked)",
    "Target Entity": "norepinephrine transporter (NET) (Rattus norvegicus)",
    "Measured Endpoint": "IC50",
    "Unit Descriptor": "nM",
    "Numeric Value": 17
  },
  {
    "Molecule": "c1ccc(C(CNc2nc(-c3ccc4ncnn4c3)nc3ccccc23)c2ccccc2)cc1",
    "Target Entity": "norepinephrine transporter (NET) (Rattus norvegicus)",
    "Measured Endpoint": "IC50",
    "Unit Descriptor": "nM",
    "Numeric Value": 86
  },
  {
    "Molecule": "CS(=O)(=O)Nc1ccc(-c2nc(NCC(O)(c3ccccc3)c3ccccc3)c3ccccc3n2)cc1",
    "Target Entity": "norepinephrine transporter (NET) (Rattus norvegicus)",
    "Measured Endpoint": "IC50",
    "Unit Descriptor": "nM",
    "Numeric Value": 426
  }
]

Q: Complete the entry with IC50 for CS(=O)(=O)Nc1ccc(-c2nc(NCC(c3ccccc3)c3ccccc3)c3ccccc3n2)cc1
Ans: 90

Q: Complete the entry with IC50 for c1ccc(C(CNc2nc(-c3cnc4nccn4c3)nc3ccccc23)c2ccccc2)cc1
Ans: 63

Q: Complete the entry with IC50 for CN(C)c1ccc(-c2nc(NCC(c3ccccc3)c3ccccc3)c3ccccc3n2)cn1
Ans: 147

---

Measured Endpoint: melting point (°C)
The answer is to be given in °C; state only the numeric part.

[
  {
    "Compound": "c1ccc(C(CNc2nc(-c3cnc4nccn4c3)nc3ccccc23)c2ncccn2)cc1 (centres unmarked) [compound 109]",
    "melting point [°C]": 180
  }
]

// below: melting point requested for another compound
Q: Complete the entry with melting point for COc1ncc(-c2nc(NCC(c3ccccc3)c3ccccc3)c3ccccc3n2)cn1 [compound 29]
Ans: 67

---

Catalogue of IC50 values
- Target Entity: dopamine transporter (DAT) (Rattus norvegicus, UniProt P23977)
- Sequence (P23977 whole entry): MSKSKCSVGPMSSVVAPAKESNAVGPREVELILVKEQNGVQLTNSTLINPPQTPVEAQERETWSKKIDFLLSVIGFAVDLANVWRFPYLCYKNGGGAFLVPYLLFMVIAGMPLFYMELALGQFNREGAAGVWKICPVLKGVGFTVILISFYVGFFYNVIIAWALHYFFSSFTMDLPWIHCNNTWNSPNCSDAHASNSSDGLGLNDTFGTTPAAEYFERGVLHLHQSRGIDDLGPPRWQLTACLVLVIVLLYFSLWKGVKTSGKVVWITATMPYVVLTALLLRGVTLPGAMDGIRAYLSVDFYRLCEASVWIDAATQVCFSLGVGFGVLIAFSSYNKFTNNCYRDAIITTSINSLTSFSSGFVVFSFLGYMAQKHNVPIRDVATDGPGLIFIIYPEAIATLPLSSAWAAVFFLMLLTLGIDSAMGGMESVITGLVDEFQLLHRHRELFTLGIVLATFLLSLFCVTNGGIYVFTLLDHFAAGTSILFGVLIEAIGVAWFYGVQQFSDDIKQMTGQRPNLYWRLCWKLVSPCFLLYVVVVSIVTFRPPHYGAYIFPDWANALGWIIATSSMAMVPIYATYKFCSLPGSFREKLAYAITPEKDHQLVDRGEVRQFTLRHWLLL
- Protocol Summary: Dopamine reuptake ([^3H]dopamine uptake) inhibition in rat brain synaptosomes
- Condition Info: Two-Site IC50-2 (nM), [^3H]DA uptake dose-response curve fit to two-component equation, component 2
The answer is to be given in nM; state only the numeric part.

Would you please look over these solved cases?
[
  {
    "Compound": "CN(C)c1ccc(-c2nc(NCCc3ccccc3)c3ccccc3n2)cc1",
    "IC50 / nM": 564
  },
  {
    "Compound": "c1ccc(C(CNc2nc(-c3ccc4c(c3)CCN4)nc3ccccc23)c2ccccc2)cc1",
    "IC50 / nM": "1.8e+06"
  }
]

// below: IC50 requested for another compound
Q: Complete the entry with IC50 for CN(C)c1ccc(-c2nc(NCC(c3ccccc3)N3CCOCC3)c3ccccc3n2)cc1 (stereo not drawn)
Ans: 4000
